Assay: MTT cytotoxicity assay, HEK293
Assay type: cell-based, human
Conditions: human, hek293 cells, read-out: CC50, concentration to cause 50% cytotoxicity
MEASURED_PARAMETER: CC50

### Prompt Quote CC50 reported for COc1ccc(Cl)cc1-n1nnc(-c2nc(-c3ccc(F)cc3)no2)c1N please.
### Response > 50 µM

* * *

Assay: MTT cytotoxicity assay, HepG2
Format: cell-based, human
Conditions: human, hepg2 cells, read-out: CC50, concentration to cause 50% cytotoxicity
MEASURED_PARAMETER: CC50

### Prompt Quote CC50 reported for COc1ccc(Cl)cc1-n1nnc(-c2nc(-c3ccc(F)cc3)no2)c1N [Compound 27] please.
### Response > 50 µM
